System: triglycerides
method description: Lipid-lowering properties in fasting normolipidemic rats (serum triglycerides, GPO-PAP method)
Format: in vivo
test settings: 6 h; Time 360'; rat, single oral dose 0.2 mmol/kg; read-out: Mean change (Δ mean reduction) of triglyceride concentrations versus vehicle-treated control
measured property: inhibition in vivo at 200 µmol/kg (%)
Give your result in % as a bare value.

Solved cases (8 shown):
// lookup inhibition in vivo at 200 µmol/kg for `CC(C)(C)c1cc(CCCOCCCCCc2cccnc2)cc(C(C)(C)C)c1O`
32

Tell me the measured inhibition in vivo at 200 µmol/kg of `CC(C)(C)c1cc(COCCCCCCCc2cccnc2)cc(C(C)(C)C)c1O` , please.
40

For the compound `CC(C)(C)c1cc(CCCOCc2cccnc2)cc(C(C)(C)C)c1O` , what inhibition in vivo at 200 µmol/kg is on record?
76

What value of inhibition in vivo at 200 µmol/kg has been reported for the following compound? `CC(C)(C)c1cc(CCCOCCCc2cccnc2)cc(C(C)(C)C)c1O`
28

If you can, please state the reported inhibition in vivo at 200 µmol/kg value of `CC(C)(C)c1cc(COCCCCCCc2cccnc2)cc(C(C)(C)C)c1O` .
67

// query inhibition in vivo at 200 µmol/kg value for entry `CC(C)(C)c1cc(COCCCCc2cccnc2)cc(C(C)(C)C)c1O`
55

Need inhibition in vivo at 200 µmol/kg of `CC(C)(C)c1cc(COCCCC/C=C\c2cccnc2)cc(C(C)(C)C)c1O` , thanks.
57

Dear colleague, I am looking for the recorded inhibition in vivo at 200 µmol/kg of the following compound: `CC(C)(C)c1cc(COCCCCCc2cccnc2)cc(C(C)(C)C)c1O`
53

Next up:
May I ask what inhibition in vivo at 200 µmol/kg has been recorded for `CC(C)(C)c1cc(COCCCCC#Cc2cccnc2)cc(C(C)(C)C)c1O` ?
70

* * *

System: Human endothelial cells of the umbilical vein
method description: Endothelial protection against cytotoxic effects of oxidized LDL
Assay type: cell-based
test settings: Homo sapiens, Endothelial cell; 2×10^-5 M, 24 h at 37° C., LDL 200 μg/ml; control preparation 2 without LDL = 100%; read-out: Mean number of endothelial cells after incubation with LDL as compared to control preparation 2
measured property: viability at 20 µM (%)
Kindly answer with a numeric value in %, unit omitted.

Which measured viability at 20 µM belongs to CC(C)(C)c1cc(CCCOCc2cccnc2)cc(C(C)(C)C)c1O [3/124] , tested on Human endothelial cells of the umbilical vein?
118

Please provide the recorded viability at 20 µM for CC(C)(C)c1cc(COCCCCCCc2cccnc2)cc(C(C)(C)C)c1O [3/161] , tested on Human endothelial cells of the umbilical vein.
107

Give recorded viability at 20 µM with Human endothelial cells of the umbilical vein for the following compound: CC(C)(C)c1cc(CCCOCCCCCc2cccnc2)cc(C(C)(C)C)c1O [3/191]
63

Human endothelial cells of the umbilical vein / viability at 20 µM / CC(C)(C)c1cc(COCCCCC#Cc2cccnc2)cc(C(C)(C)C)c1O [3/179] : value?
76

Provide the documented viability at 20 µM with Human endothelial cells of the umbilical vein as the system for CC(C)(C)c1cc(COCCCCCCCc2cccnc2)cc(C(C)(C)C)c1O [3/188]
79

What viability at 20 µM appears in the records for this compound with Human endothelial cells of the umbilical vein? CC(C)(C)c1cc(COCCCC/C=C\c2cccnc2)cc(C(C)(C)C)c1O [3/181]
122

I'm curious: which viability at 20 µM was measured for CC(C)(C)c1cc(COCCCCc2cccnc2)cc(C(C)(C)C)c1O [3/187] tested on Human endothelial cells of the umbilical vein?
80

State its viability at 20 µM on Human endothelial cells of the umbilical vein: CC(C)(C)c1cc(CCCOCCCc2cccnc2)cc(C(C)(C)C)c1O [3/190]
65

New cases:
Under Human endothelial cells of the umbilical vein: viability at 20 µM value of CC(C)(C)c1cc(COCCCCCc2cccnc2)cc(C(C)(C)C)c1O [3/192] ?
79
